Target: histamine H2-receptors (Cavia porcellus)
Construct: from tissue; host or cells: isolated guinea pig right atrium
Assay: standard guinea pig atrium test (inhibition of histamine-induced tachycardia in the isolated guinea pig right atrium)
Format: cell-based
Settings: slope belonging to pA2, guinea-pig atrium
readout_label: slope of response (figure in brackets with pA2, guinea-pig atrium)
Format: numeric value only, no unit, no commentary.

Sure, the documented slope of response (figure in brackets with pA2, guinea-pig atrium) for CN(C)CC#CCCCCNC1=NS(=O)(=O)N=C1N [Example 3] is 0.50

// slope of response (figure in brackets with pA2, guinea-pig atrium) value for CN(C)CC#CCCCNC1=NS(=O)(=O)N=C1N [Example 4] : 0.88

Quick note, slope of response (figure in brackets with pA2, guinea-pig atrium) for CN(C)CC#CCCCCNc1n[s+]([O-])nc1N (stereo not shown) [Example 2] landed at 0.61

Looking up Nc1n[s+]([O-])nc1NCCCCC#CCN1CCCCC1 (stereo not shown) [Example 1] , I see its slope of response (figure in brackets with pA2, guinea-pig atrium) listed as 0.95

---

Molecular target: histamine H2-receptors (Cavia porcellus, UniProt P47747)
Construct: from tissue; host or cells: isolated guinea pig right atrium
Sequence (P47747 whole entry): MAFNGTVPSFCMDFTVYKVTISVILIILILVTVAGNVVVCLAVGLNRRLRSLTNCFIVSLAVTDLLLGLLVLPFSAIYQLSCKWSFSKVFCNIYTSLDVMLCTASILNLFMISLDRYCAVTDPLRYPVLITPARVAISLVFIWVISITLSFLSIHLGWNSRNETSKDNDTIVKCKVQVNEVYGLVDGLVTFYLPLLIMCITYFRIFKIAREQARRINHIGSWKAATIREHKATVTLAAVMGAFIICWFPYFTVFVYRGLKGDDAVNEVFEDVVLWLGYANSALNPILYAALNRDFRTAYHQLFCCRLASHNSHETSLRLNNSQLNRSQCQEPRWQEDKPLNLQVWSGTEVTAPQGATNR
Assay: standard guinea pig atrium test (inhibition of histamine-induced tachycardia in the isolated guinea pig right atrium)
Type: cell-based
Settings: isolated guinea pig right atrium; read-out: pA2 (guinea-pig atrium) (converted)
readout_label: Kb (nM)
Unit nM implied. Number only.

So, CN(C)CC#CCCCNC1=NS(=O)(=O)N=C1N ? Its Kb was 100

Quick note, Kb for CN(C)CC#CCCCCNc1n[s+]([O-])nc1N (stereo not shown) landed at 646

// Nc1n[s+]([O-])nc1NCCCCC#CCN1CCCCC1 (stereo not shown) : Kb value = 3020

Consider CN(C)CC#CCCCCNC1=NS(=O)(=O)N=C1N . Its measured Kb is 151

---

Target: histamine H2-receptors (Rattus norvegicus)
Construct: secretion of gastric acid from the lumen-perfused stomachs of rats anaesthetised with urethane; from tissue; host or cells: stomach of urethane-anaesthetised rats (in vivo, lumen-perfused)
Sequence (P25102 whole entry, the tested form may be a part): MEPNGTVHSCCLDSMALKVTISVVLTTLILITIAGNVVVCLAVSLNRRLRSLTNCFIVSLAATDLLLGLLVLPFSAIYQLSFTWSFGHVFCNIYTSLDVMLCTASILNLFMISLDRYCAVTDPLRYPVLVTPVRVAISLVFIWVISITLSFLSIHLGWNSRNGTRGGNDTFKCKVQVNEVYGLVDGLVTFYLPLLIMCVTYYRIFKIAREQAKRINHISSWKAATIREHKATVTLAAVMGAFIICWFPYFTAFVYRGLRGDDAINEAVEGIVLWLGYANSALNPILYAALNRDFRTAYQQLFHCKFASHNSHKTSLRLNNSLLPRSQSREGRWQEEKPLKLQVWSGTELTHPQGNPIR
Experiment: standard lumen-perfused rat test (inhibition of histamine-stimulated secretion of gastric acid from the lumen-perfused stomachs of rats anaesthetised with urethane)
Format: in vivo
From the text: These are actions of histamine which, according to Ash and Schild, Brit. J. Pharmac. Chemother. 27 247 (1966), are not mediated by histamine H1 -receptors. The measurement of inhibition of histamine-stimulated secretion of gastric acid from the lumen-perfused stomachs of rats anaesthetised with urethane, and the measurement of inhibition of histamine-induced tachycardia in the isolated guinea pig right atrium, are detailed in U.S. Pat. No. 4,385,058. […]
Would you mind telling me the reported ED50 of each entry?
Express your answer in mg/kg, writing the number without its unit.

Per the records, this molecule ( Nc1n[s+]([O-])nc1NCCCCC#CCN1CCCCC1 (stereo not shown) [Example 1] ) has ED50 equal to 1.1

Input CN(C)CC#CCCCNC1=NS(=O)(=O)N=C1N [Example 4] . Output ED50: 0.027

Summary for this molecule, CN(C)CC#CCCCCNc1n[s+]([O-])nc1N (stereo not shown) [Example 2] : ED50 is 0.16

Measured ED50, CN(C)CC#CCCCCNC1=NS(=O)(=O)N=C1N [Example 3] : 0.1
